Reported values: Ki for Thymidylate kinase (Mycobacterium tuberculosis), one per item.
Express your answer in µM, writing the number without its unit.

**Q:** Request the reported Ki associated with `Cc1cn([C@@H]2O[C@H](CF)[C@@H](CN=[N+]=[N-])[C@H]2F)c(=O)[nH]c1=O`
**A:** 80

**Q:** Request the reported Ki associated with `Cc1cn([C@@H]2O[C@H](CO)[C@@H](CN)[C@H]2Cl)c(=O)[nH]c1=O`
**A:** 390

**Q:** Request the reported Ki associated with `Cc1cn([C@@H]2O[C@H](CO)[C@H]3CNC(=O)O[C@H]32)c(=O)[nH]c1=O`
**A:** 13.5

**Q:** Request the reported Ki associated with `Cc1cn([C@@H]2O[C@H](CO)[C@@H](CN=[N+]=[N-])[C@H]2F)c(=O)[nH]c1=O`
**A:** 165

**Q:** Request the reported Ki associated with `Cc1cn([C@@H]2O[C@H](CO)[C@H]3CNC(=S)O[C@H]32)c(=O)[nH]c1=O`
**A:** 3.5

###

Record form. Attribute: pKi. Fill in for each entry.
// field semantics: pKi = negative decimal log of concentration (mol/L)

**Q:** State its pKi on Thymidylate kinase (Homo sapiens, UniProt P23919): `Cc1cn([C@H]2C[C@H](CN)[C@@H](CO)O2)c(=O)[nH]c1=O`
Sequence (P23919 whole entry): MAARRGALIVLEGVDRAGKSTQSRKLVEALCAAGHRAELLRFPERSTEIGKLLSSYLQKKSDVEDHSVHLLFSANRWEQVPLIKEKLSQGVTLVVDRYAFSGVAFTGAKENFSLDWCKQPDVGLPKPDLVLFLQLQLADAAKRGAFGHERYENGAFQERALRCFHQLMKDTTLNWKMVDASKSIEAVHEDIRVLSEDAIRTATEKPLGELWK
**A:** 3.66

**Q:** State its pKi on Thymidylate kinase (Homo sapiens, UniProt P23919): `Cc1cn([C@@H]2O[C@H](CO)[C@H]3CNC(=O)O[C@H]32)c(=O)[nH]c1=O`
**A:** 2.96

**Q:** State its pKi on Thymidylate kinase (Homo sapiens, UniProt P23919): `Cc1cn([C@H]2C[C@H](CN=[N+]=N)[C@@H](CO)O2)c(=O)[nH]c1=O`
**A:** 2.98

**Q:** State its pKi on Thymidylate kinase (Homo sapiens, UniProt P23919): `Cc1cn([C@H]2C[C@H](O)[C@@H](CO)O2)c(=O)[nH]c1=O`
**A:** 3.74

**Q:** State its pKi on Thymidylate kinase (Homo sapiens, UniProt P23919): `Cc1cn([C@@H]2O[C@H](CO)[C@H]3CNC(=S)O[C@H]32)c(=O)[nH]c1=O`
**A:** 3.15

###

Protocol Details: Selectivity index, Ki for human TMPK/Ki for Mycobacterium tuberculosis TMPK
Reported Property: Ratio Ki

**Q:** Request the reported Ratio Ki associated with `Cc1cn([C@H]2C[C@H](CN)[C@@H](CO)O2)c(=O)[nH]c1=O`
**A:** 3.9

**Q:** Request the reported Ratio Ki associated with `Cc1cn([C@H]2C[C@H](CN=[N+]=N)[C@@H](CO)O2)c(=O)[nH]c1=O`
**A:** 26

**Q:** Request the reported Ratio Ki associated with `Cc1cn([C@@H]2O[C@H](CO)[C@H]3CNC(=O)O[C@H]32)c(=O)[nH]c1=O`
**A:** 81.5

**Q:** Request the reported Ratio Ki associated with `Cc1cn([C@@H]2O[C@H](CO)[C@H]3CNC(=S)O[C@H]32)c(=O)[nH]c1=O`
**A:** 200

###

Reported values: Ki for UniProt P9WKE1, one per item.
Express your answer in µM, writing the number without its unit.

**Q:** Request the reported Ki associated with `Cc1cn([C@@H]2C[C@H](CN=[N+]=[N-])[C@@H](CO)O2)c(=O)[nH]c1=O`
**A:** 29

**Q:** Request the reported Ki associated with `Cc1cn([C@@H]2O[C@H](CO)[C@@H](CN=[N+]=[N-])[C@H]2Cl)c(=O)[nH]c1=O`
**A:** 180

**Q:** Request the reported Ki associated with `Cc1cn([C@H]2C[C@H](CN=[N+]=N)[C@@H](CO)O2)c(=O)[nH]c1=O`
**A:** 40

These data points were gathered from ChEMBL document CHEMBL1149246.
